Assay: Growth inhibition of MDCK2 cells expressing C-terminal GFP-fused human ABCG2 after 72 hrs by MTT assay
Format: ADME, cell-based, Canis lupus familiaris, MDCK-II
Conditions: dog
Readout: GI50 at 72 h (µM)
Kindly provide the numeric value in µM only, without the unit symbol.

> print(dat)
                         chemical.structure  numeric.value
1  COc1ccc(C(=O)Nc2ccccc2-c2nnc(-c3ccc(OC)cc3)o2)cc1            404
2  COc1ccc(C(=O)Nc2ccccc2-c2nnn(-c3ccc(OC)nc3)n2)cc1             78
3  O=C(Nc1ccccc1-c1nnc(-c2ccccc2)o1)c1ccccc1           73.7

Ask: Which GI50 at 72 h value belongs to O=C(Nc1ccccc1-n1cc(-c2ccccc2)nn1)c1ccccc1 ?
Result: 506

====

Assay: Growth inhibition of MDCK2 cells after 72 hrs by MTT assay
Format: cell-based, Canis lupus familiaris, MDCK-II
Settings: dog
Below, each entry is listed with its recorded GI50 at 72 h.
Kindly provide the numeric value in µM only, without the unit symbol.

Below, 3 compounds whose answers are already recorded.
> print(dat)
                         chemical.structure       readout  numeric.value
1  O=C(Nc1ccccc1-c1nnc(-c2ccccc2)o1)c1ccccc1  GI50 at 72 h           60.8
2  COc1ccc(C(=O)Nc2ccccc2-c2nnc(-c3ccc(OC)cc3)o2)cc1  GI50 at 72 h            487
3  COc1ccc(C(=O)Nc2ccccc2-c2nnn(-c3ccc(OC)nc3)n2)cc1  GI50 at 72 h           80.1

Now for a further compound.
Ask: Which GI50 at 72 h value belongs to O=C(Nc1ccccc1-n1cc(-c2ccccc2)nn1)c1ccccc1 ?
Result: 452

====

Target: Broad substrate specificity ATP-binding cassette transporter ABCG2 (Homo sapiens, UniProt Q9UNQ0)
Sequence (Q9UNQ0 whole entry): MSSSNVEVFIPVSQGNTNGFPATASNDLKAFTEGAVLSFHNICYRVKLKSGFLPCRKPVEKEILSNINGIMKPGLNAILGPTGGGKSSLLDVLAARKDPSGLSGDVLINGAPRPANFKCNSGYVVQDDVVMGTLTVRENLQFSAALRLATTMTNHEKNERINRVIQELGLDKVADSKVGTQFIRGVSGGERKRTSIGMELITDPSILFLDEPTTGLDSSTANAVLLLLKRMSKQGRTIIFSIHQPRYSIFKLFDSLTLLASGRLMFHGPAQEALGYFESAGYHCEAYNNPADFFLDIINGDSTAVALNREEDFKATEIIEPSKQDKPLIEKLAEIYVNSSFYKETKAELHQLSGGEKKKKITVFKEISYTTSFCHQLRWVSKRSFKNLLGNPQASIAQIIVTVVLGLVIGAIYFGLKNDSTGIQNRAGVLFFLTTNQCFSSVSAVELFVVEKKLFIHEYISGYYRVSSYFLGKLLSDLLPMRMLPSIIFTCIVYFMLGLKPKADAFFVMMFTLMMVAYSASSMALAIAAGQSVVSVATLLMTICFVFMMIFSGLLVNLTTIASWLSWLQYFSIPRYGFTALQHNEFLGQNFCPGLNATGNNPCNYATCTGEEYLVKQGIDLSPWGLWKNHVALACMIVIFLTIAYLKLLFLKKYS
Below, each entry is listed with its recorded pIC50.
Units for pIC50: none; it is -log10 of a concentration expressed in mol/L.

> print(dat)
                         chemical.structure  readout  numeric.value
1  COc1ccc(-n2nnc(-c3ccccc3NC(=O)c3cccc4ccccc34)n2)cc1    pIC50           6.57
2  COc1ccc(-n2nnc(-c3cccc(NC(=O)c4ccc(C(F)(F)F)cc4)c3)n2)cc1    pIC50           4.73
3  COc1ccc(-n2nnc(-c3ccccc3NC(=O)c3cccs3)n2)cc1    pIC50           6.45

Ask: Which pIC50 value belongs to COc1ccc(-n2nnc(-c3cc(OC)ccc3NC(=O)c3ccc([N+](=O)[O-])cc3)n2)cc1 ?
Result: 6.89

Ask: // repeat for O=C(Nc1ccccc1-c1nnn(-c2ccccc2)n1)c1ccc2c(c1)OCO2 and report
Result: 6.59

Ask: // repeat for COc1ccc(C(=O)Nc2ccccc2-n2cc(-c3ccc(OC)cc3)nn2)cc1 and report
Result: 5.63

Ask: // repeat for c1ccc(-c2ccccc2-c2nnn(-c3ccccc3)n2)cc1 and report
Result: 5.08

Ask: // repeat for CC(=O)Nc1ccccc1-c1nnn(-c2ccccc2)n1 and report
Result: 5.16

Ask: // repeat for COc1ccc(-c2cn(-c3ccccc3NC(=O)c3ccc(C(F)(F)F)cc3)nn2)cc1 and report
Result: 6.12

Ask: // repeat for COc1ccc(C(=O)Nc2ccccc2-c2nnc(-c3ccc(OC)cc3)o2)cc1 and report
Result: 6.36

Ask: // repeat for COc1ccc(C(=O)Nc2ccccc2-c2nnn(-c3ccc(OC)nc3)n2)cc1 and report
Result: 7.21

====

Target: ATP-dependent translocase ABCB1 (Homo sapiens, UniProt P08183)
Sequence (P08183 whole entry): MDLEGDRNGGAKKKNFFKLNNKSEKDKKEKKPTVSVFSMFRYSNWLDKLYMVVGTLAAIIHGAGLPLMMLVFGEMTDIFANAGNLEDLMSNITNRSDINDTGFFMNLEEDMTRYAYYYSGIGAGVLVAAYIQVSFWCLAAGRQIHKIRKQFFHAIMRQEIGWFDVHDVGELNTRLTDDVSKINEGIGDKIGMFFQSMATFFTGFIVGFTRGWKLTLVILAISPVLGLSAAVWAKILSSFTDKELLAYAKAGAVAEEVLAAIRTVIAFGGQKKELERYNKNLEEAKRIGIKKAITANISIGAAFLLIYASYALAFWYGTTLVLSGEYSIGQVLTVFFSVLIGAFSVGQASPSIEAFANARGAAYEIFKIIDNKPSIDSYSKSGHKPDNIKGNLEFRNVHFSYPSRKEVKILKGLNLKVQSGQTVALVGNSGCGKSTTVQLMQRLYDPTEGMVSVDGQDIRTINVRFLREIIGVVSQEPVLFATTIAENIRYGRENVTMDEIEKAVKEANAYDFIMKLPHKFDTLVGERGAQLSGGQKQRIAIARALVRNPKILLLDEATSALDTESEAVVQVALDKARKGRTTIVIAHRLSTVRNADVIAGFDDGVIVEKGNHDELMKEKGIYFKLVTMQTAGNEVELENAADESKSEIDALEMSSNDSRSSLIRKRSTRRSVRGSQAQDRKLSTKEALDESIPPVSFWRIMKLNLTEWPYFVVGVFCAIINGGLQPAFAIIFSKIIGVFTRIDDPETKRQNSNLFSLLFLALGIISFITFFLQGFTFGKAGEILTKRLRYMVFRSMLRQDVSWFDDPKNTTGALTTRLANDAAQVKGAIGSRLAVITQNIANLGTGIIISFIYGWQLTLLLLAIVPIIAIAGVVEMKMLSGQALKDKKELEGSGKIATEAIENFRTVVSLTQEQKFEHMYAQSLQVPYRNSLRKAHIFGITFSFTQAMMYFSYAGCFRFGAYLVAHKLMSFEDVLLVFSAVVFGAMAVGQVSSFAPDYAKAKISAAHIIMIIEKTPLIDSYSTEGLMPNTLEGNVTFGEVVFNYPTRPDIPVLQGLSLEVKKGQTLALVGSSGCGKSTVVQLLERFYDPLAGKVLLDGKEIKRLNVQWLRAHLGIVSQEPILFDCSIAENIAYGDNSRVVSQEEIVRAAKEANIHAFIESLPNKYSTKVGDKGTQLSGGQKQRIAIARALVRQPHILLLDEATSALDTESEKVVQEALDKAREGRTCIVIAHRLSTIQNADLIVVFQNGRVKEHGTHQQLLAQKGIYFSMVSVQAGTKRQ
Experiment: Inhibition of ABCB1 in human A2780adr cells assessed as reduction in calcein AM levels preincubated for 30 mins followed by calcein AM addition measured immediately at 60 sec time interval for 60 mins by fluorescence assay
Readout: IC50

Below, 3 molecules whose answers are already recorded.
> print(dat)
                         chemical.structure   result
1  O=C(Nc1ccccc1-n1cc(-c2ccccc2)nn1)c1ccccc1  21.2 µM
2  COc1ccc(C(=O)Nc2ccccc2-c2nnn(-c3ccc(OC)nc3)n2)cc1  8.55 µM
3  O=C(Nc1ccccc1-c1nnn(-c2ccccc2)n1)c1ccccn1  5.91 µM

Now for a further molecule.
Ask: Which IC50 value belongs to O=C(Nc1ccccc1-c1nnn(-c2ccccc2)n1)C12CC3CC(CC(C3)C1)C2 ?
Result: 11 µM

====

Test system: ABCG2
Assay: Therapeutic index, ratio of GI50 for MDCK2 cells expressing C-terminal GFP-fused human ABCG2 to IC50 for C-terminal GFP-fused human ABCG2 expressed in MDCK2 BCRP cells
Type: toxicity, cell-based
Conditions: dog, read-out: TI
Readout: selectivity ratio
Output spec: single numeric token, no unit.

> print(dat)
                         chemical.structure  system.under.test            readout  numeric.value
1  COc1ccc(C(=O)Nc2ccccc2-c2nnn(-c3ccc(OC)nc3)n2)cc1              ABCG2  selectivity ratio           1270

Ask: Which selectivity ratio value belongs to COc1ccc(C(=O)Nc2ccccc2-c2nnc(-c3ccc(OC)cc3)o2)cc1 ?
Result: 836

Ask: // repeat for O=C(Nc1ccccc1-n1cc(-c2ccccc2)nn1)c1ccccc1 and report
Result: 33.1

Ask: // repeat for O=C(Nc1ccccc1-c1nnc(-c2ccccc2)o1)c1ccccc1 and report
Result: 658

====

Biological target: Broad substrate specificity ATP-binding cassette transporter ABCG2 (Homo sapiens)
Sequence (Q9UNQ0 whole entry): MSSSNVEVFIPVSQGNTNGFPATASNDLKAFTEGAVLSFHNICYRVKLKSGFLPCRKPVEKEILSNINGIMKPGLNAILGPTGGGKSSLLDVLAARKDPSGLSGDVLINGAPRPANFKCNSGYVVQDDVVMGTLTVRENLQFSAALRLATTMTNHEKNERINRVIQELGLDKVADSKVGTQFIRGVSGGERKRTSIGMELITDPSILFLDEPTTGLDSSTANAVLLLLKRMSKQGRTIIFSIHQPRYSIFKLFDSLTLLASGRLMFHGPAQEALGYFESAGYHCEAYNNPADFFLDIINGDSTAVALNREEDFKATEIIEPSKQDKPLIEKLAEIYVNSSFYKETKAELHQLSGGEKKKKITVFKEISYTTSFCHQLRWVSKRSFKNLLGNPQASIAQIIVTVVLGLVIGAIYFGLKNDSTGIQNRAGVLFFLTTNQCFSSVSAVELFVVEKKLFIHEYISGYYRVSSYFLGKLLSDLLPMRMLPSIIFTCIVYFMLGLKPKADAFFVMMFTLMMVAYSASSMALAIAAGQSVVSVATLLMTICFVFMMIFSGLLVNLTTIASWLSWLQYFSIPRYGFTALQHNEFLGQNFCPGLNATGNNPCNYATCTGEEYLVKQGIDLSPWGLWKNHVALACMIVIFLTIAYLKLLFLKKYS
Readout: pIC50
Units for pIC50: none; it is -log10 of a concentration expressed in mol/L.

Below, 3 compounds whose answers are already recorded.
> print(dat)
                         chemical.structure  readout  numeric.value
1  O=C(Nc1ccccc1-c1nnn(-c2ccccc2)n1)c1ccccn1    pIC50           6.13
2  O=C(Nc1ccccc1-n1cc(-c2ccccc2)nn1)c1ccccc1    pIC50           4.82
3  COc1ccc(-n2nnc(-c3ccccc3NC(=O)C3CCCCC3)n2)cc1    pIC50           6.25

Ask: Which pIC50 value belongs to O=C(Nc1ccccc1-c1nnn(-c2ccccc2)n1)c1cnc2ccccc2c1 ?
Result: 6.75

Ask: // repeat for COc1ccc(-n2nnc(-c3ccccc3NC(C)=O)n2)cc1 and report
Result: 5.49

Ask: // repeat for O=C(Nc1ccccc1-c1nnn(-c2ccccc2)n1)c1cccnc1 and report
Result: 6.35
